target: the molecule itself; assay: cross-linking; Ca2+-loaded proteins: 0.02% glutaric aldehyde, 16 h, 20 °C, protein 1 mg/mL, 20 mM Tricine-KOH pH 7.4, 50 mM KCl, 1 mM DTT, 1 mM CaCl2; SDS-PAGE, Coomassie, densitometry; self-association
Readout label: Monomer 20 kDa, % (%)

protein="human recoverin mutant W156A (natural protein, UniProt P35243 1-200, looked up, myristoylated (fraction of non-myristoylated forms did not exceed 16%), recoverin, human, UniProt P35243, C-terminal 'gray' cluster mutant; Parent construct as m1; source: E. coli, expressed and purified similarly to the rWT protein (phenyl-Sepharose, Toyopearl SuperQ-650M)) MGNSKSGALSKEILEELQLNTKFSEEELCSWYQSFLKDCPTGRITQQQFQSIYAKFFPDTDPKAYAQHVFRSFDSNLDGTLDFKEYVIALHMTTAGKTNQKLEWAFSLYDVDGNGTISKNEVLEIVMAIFKMITPEDVKLLPDDENTPEKRAEKIAKYFGKNDDDKLTEKEFIEGTLANKEILRLIQFEPQKVKEKMKNA" readout_label="Monomer 20 kDa, %" quantitative_readout=20.4
protein="human recoverin mutant F49A (natural protein, UniProt P35243 1-200, looked up, myristoylated (fraction of non-myristoylated forms did not exceed 16%), recoverin, human, UniProt P35243, N-terminal 'gray' cluster mutant; Parent construct as m1; source: E. coli, expressed and purified similarly to the rWT protein (phenyl-Sepharose, Toyopearl SuperQ-650M)) MGNSKSGALSKEILEELQLNTKFSEEELCSWYQSFLKDCPTGRITQQQAQSIYAKFFPDTDPKAYAQHVFRSFDSNLDGTLDFKEYVIALHMTTAGKTNQKLEWAFSLYDVDGNGTISKNEVLEIVMAIFKMITPEDVKLLPDDENTPEKRAEKIWKYFGKNDDDKLTEKEFIEGTLANKEILRLIQFEPQKVKEKMKNA" readout_label="Monomer 20 kDa, %" quantitative_readout=30.6
protein="human recoverin mutant F106A (natural protein, UniProt P35243 1-200, looked up, myristoylated (fraction of non-myristoylated forms did not exceed 16%), recoverin, human, UniProt P35243, C-terminal 'black' cluster mutant; Parent construct as m1; source: E. coli, expressed and purified similarly to the rWT protein (phenyl-Sepharose, Toyopearl SuperQ-650M)) MGNSKSGALSKEILEELQLNTKFSEEELCSWYQSFLKDCPTGRITQQQFQSIYAKFFPDTDPKAYAQHVFRSFDSNLDGTLDFKEYVIALHMTTAGKTNQKLEWAASLYDVDGNGTISKNEVLEIVMAIFKMITPEDVKLLPDDENTPEKRAEKIWKYFGKNDDDKLTEKEFIEGTLANKEILRLIQFEPQKVKEKMKNA" readout_label="Monomer 20 kDa, %" quantitative_readout=17.9
